Reference for the values: patent US20240002497A1

Molecular target: T1, huNav1.7α+β1 (human, UniProt Q15858 1-1988; Q07699 19-218)
T1 construct: also called huNav1.7-beta1; HEKa/β1
Test: binding FACS, HEK293 cells
observed_property: EC50 (nM)

[I] F0103464B09 (parental)-FLAG-HIS6 (VHH, also called F103464B09) VHH: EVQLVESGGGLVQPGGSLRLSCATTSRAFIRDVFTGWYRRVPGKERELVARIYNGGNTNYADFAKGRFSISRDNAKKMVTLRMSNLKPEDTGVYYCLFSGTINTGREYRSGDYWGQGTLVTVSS
[II] F0103262B06 (parental)-FLAG-HIS6 (VHH) VHH: EVQLVESGGGLVQPGGSLRLSCAGSTRTFSTYAMGWFRQAPGREREFVAHINFSGSSTRYADSVKGRFTISRDNAKNMGYLQMNSLKPEDTAVYYCAARWVAGPPRYDYEYWGQGTLVTVSS
[III] F0103265A11 (parental)-FLAG-HIS6 (VHH, also called F01033265A11) VHH: EVQLVESGGGLVQPGGSLRLSCAASGMLFNANTQGWYRQAPGKQRELVAFIFSGGYTNYVDSVKGRFTISRDNAKRTMYLQMNSLKPEDSAIYYCSLSRYLGQGTLVTVSS
[IV] F0103362B08 (parental)-FLAG-HIS6 (VHH) VHH: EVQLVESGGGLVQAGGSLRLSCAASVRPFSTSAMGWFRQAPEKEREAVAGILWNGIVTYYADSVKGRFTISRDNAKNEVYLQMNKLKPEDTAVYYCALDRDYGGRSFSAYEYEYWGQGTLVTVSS
[V] F0103387G05 (parental)-FLAG-HIS6 (VHH) VHH: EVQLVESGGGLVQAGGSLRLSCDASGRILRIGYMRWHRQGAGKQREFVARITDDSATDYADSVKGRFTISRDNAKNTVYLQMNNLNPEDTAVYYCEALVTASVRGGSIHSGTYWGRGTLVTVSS
Task field, ranking: reported EC50, descending order. Please write the labels in the order that was asked for. IV, II, III, I, V
(IV: 59 nM, II: 20 nM, III: 8.4 nM, I: 4.1 nM, V: 1.2 nM)

[1] F0103275B05 (parental)-FLAG-HIS6 (VHH, also called F01033275B05) VHH: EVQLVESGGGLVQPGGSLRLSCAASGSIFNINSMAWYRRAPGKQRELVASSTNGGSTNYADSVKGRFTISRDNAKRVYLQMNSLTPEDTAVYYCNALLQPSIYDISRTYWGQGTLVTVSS
[2] F0103265B04 (parental)-FLAG-HIS6 (VHH) VHH: EVQLVESGGGLVQPGGSLRLSCAAPSFIFSNNYMEWYRQAPGKQRDWVARITGRGNTNYLDSVKGRFTISRDDAKNTVYLEIDSLKPEDTAVYYCSALWYGGRAWGKGTLVTVSS
Please compare: 1 and 2 . Report which one has the smaller EC50 value. Use the label to indicate which entry you chose. 2
(2: 5.5 nM, 1: 28 nM)
